PROTOCOL DETAILS: Pharmacokinetic study in SD male rats
Assay type: in vivo, rat
MEASUREMENT PARAMETERS: Sprague-Dawley, rat, plasma, oral, 10 mg/kg, n = 5, Table S3
RESULT TYPE: AUC(0-t) (ng·h/mL)
Give just the number in ng·h/mL; leave the unit off.

Item: CCOc1ccc(-n2c(SCC(=O)Nc3ccc(OC)c(OC)c3)nc3sc4c(c3c2=O)CCN(C(C)=O)C4)cc1 | AUC(0-t): 1930

---

System: acute AD model mice (Aβ1-42 ICV injected ICR mice)
PROTOCOL DETAILS: Y-maze spontaneous alternation test in acute AD model mice
Format: in vivo, mouse
MEASUREMENT PARAMETERS: 30 mg/kg daily, 6 days, i.p.
Please respond with reported Recovery of Y-maze spontaneous alternations for every item in the list.
Dear colleague, please return just the value in %, with no unit written.

NC(=O)CN1CCCC1=O [Piracetam, piracetam, reference compound] yielded Recovery of Y-maze spontaneous alternations of 20

// Recovery of Y-maze spontaneous alternations lookup, compound = CCOc1ccc(-n2c(SCC(=O)Nc3ccc(OC)c(OC)c3)nc3sc4c(c3c2=O)CCN(C(C)=O)C4)cc1 [Compound 7] , result: 76

Lookup result for CCOc1ccc(-n2c(SCC(=O)N3CCN(c4ccccc4)CC3)nc3sc4c(c3c2=O)CCN(C(C)=O)C4)cc1 [Compound 44] ; measured Recovery of Y-maze spontaneous alternations: 98

Recovery of Y-maze spontaneous alternations reading for CCOc1ccc(-n2c(SCC(=O)NCc3ccccc3)nc3sc4c(c3c2=O)CCN(C(C)=O)C4)cc1 [Compound 31] : 107
